Assay protocol: chemical genetic growth profiling, strain panel (AID 1159580);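 also: tested at 20 µM; growth read once vehicle control cultures reached saturation at 30 °C; 1 = growth at the plate median or of vehicle wells; lower values mean less growth of the strain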
Test conditions: S. cerevisiae deletion strains, growth OD, locus YLR342W, strain FKS1 (second series), active compounds read low
Out of some 5,500 compounds screened, about 2,000 (36%) were called active. About 18% were inconclusive and are not listed. Some of the results follow.

Compound	normalized growth
NC[C@@H]1O[C@H](O[C@@H]2[C@@H](CO)OC(O[C@@H]3[C@@H](O)[C@H](N)C[C@H](N)[C@H]3O[C@H]3O[C@H](CO)[C@@H](O)[C@H](O)[C@H]3N)[C@@H]2O)[C@H](N)[C@@H](O)[C@@H]1O (stereo not given in full)	1.09
NC[C@H]1O[C@H](OC2[C@@H](N)C[C@@H](N)[C@H](O[C@H]3O[C@H](CO)[C@@H](O)[C@H](N)[C@H]3O)[C@H]2O)[C@H](O)[C@@H](O)[C@@H]1O (stereo not given in full)	1
NCCCCN	1.07
C[C@]12CC[C@H](O)C[C@H]1CCC1C2CC[C@]2(C)[C@@H](C3=CC(=O)OC3)[C@@H](O)C[C@]12O (stereo not given in full)	1.05
NC[C@H]1O[C@H](O[C@H]2[C@H](O)[C@@H](O[C@H]3O[C@H](CO)[C@@H](O)[C@H](N)[C@H]3O)[C@H](N)C[C@@H]2N)[C@H](N)[C@@H](O)[C@@H]1O	0.999
CC1(C)[C@@H]2CC[C@@]1(C)C(=O)C2	1.02
C[C@]12CCC3C(CC[C@]4(O)C[C@@H](O)CC[C@]34C=O)[C@@]1(O)CCC2C1=CC(=O)OC1 (stereo not given in full)	1.01
CC(=O)OC1CC[C@@]2(C)C(CCC3C2CC[C@]2(C)C(C4=CC(=O)OC4)C(OC(C)=O)CC32O)C1 (stereo not given in full)	0.986
CC1Cc2ccccc2N1NC(=O)c1ccc(Cl)c(S(N)(=O)=O)c1 (stereo not given)	1.01
CC1CCCC(C)N1NC(=O)c1ccc(Cl)c(S(N)(=O)=O)c1 (stereo not given)	1.06
Cc1ccccc1N1C(=O)c2cc(S(N)(=O)=O)c(Cl)cc2NC1C (stereo not given)	0.971
C[C@@H]1O[C@@H](O[C@H]2CC[C@]3(C=O)C4CC[C@]5(C)[C@@H](C6=CC(=O)OC6)CC[C@]5(O)C4CC[C@]3(O)C2)[C@H](O)[C@H](O)[C@H]1O (stereo not given in full)	1.06
CCC(=O)O[C@]1(C(=O)CCl)[C@@H](C)CC2C3CCC4=CC(=O)C=C[C@]4(C)[C@@]3(F)[C@@H](O)C[C@@]21C (stereo not given in full)	0.999
CCCCC(=O)O[C@]1(C(=O)CO)[C@@H](C)CC2C3CCC4=CC(=O)C=C[C@]4(C)[C@@]3(F)C(O)C[C@@]21C (stereo not given in full)	1
CO[C@H]1[C@H](O)[C@@H](O[C@H]2CC[C@]3(C=O)C4CC[C@]5(C)[C@@H](C6=CC(=O)OC6)CC[C@]5(O)C4CC[C@@H]3C2)O[C@@H](C)[C@@H]1O (stereo not given in full)	0.998

* * *

Assay protocol: chemical genetic growth profiling, strain panel (AID 1159580)
Test conditions: S. cerevisiae deletion strains, growth OD, locus YJR066W, strain TOR1, active compounds read low
Out of some 5,500 compounds screened, about 2,000 (36%) were called active. Inconclusive results (about 18%) are left out. The list shows a part of the results.
Entries and their normalized growth
Property: normalized growth

                                   compound  observed_result
0  CC(=O)NCCc1ccc(O)c(-c2c(O)c(O)c3c(c2O)C(=O)c2c(cc(O)c(C(=O)O)c2C(=O)O)C3=O)c1            0.931
1  CC(=O)OCC(=O)[C@@]1(O)CCC2C3C[C@H](C)C4=CC(=O)C=CC4(C)C3[C@@H](O)CC21C (stereo not given in full)             0.99
2  FC(F)(F)Oc1ccc(OCc2n[nH]c(=S)n2-c2ccc(Cl)cc2)cc1             1.13
3   CC(C)=CC1C(CO)C1(C)C (stereo not given)            0.957
4  FC(F)(F)Sc1ccc(OCc2n[nH]c(=S)n2-c2ccccc2)cc1            0.945

* * *

Assay protocol: chemical genetic growth profiling, strain panel (AID 1159580);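 also: tested at 20 µM; growth read once vehicle control cultures reached saturation at 30 °C; 1 = growth at the plate median or of vehicle wells; lower values mean less growth of the strain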
Test conditions: S. cerevisiae deletion strains, growth OD, locus YNL233W, strain BNI4, active compounds read low
Hit rate of the full screen: of about 5,500 compounds, about 2,000 (36%) were called active. Another 18% or so got no clear call; they are omitted. This is one part of the list.
normalized growth overview
Property: normalized growth

Compound	Observed result
C/C=C(/C)C(=O)O[C@@H]1Cc2c(ccc3ccc(=O)oc23)OC1(C)C	1
CN(C)CC[C@H](c1ccc(Cl)cc1)c1ccccn1	1.01
CC1(C)Oc2ccc3ccc(=O)oc3c2CC1O (centres undefined)	1
C/C=C/CC(C)C(O)C1C(=O)NC(CC)C(=O)N(C)CC(=O)N(C)C(CC(C)C)C(=O)NC(C(C)C)C(=O)N(C)C(CC(C)C)C(=O)NC(C)C(=O)NC(C)C(=O)N(C)C(CC(C)C)C(=O)N(C)C(CC(C)C)C(=O)N(C)C(C(C)C)C(=O)N1C (centres undefined)	0.986

* * *

normalized growth values for the compounds below.
Assay protocol: chemical genetic growth profiling, strain panel (AID 1159580);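 also: tested at 20 µM; growth read once vehicle control cultures reached saturation at 30 °C; 1 = growth at the plate median or of vehicle wells; lower values mean less growth of the strain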
Test conditions: S. cerevisiae deletion strains, growth OD, locus YHR200W, strain rpn10, active compounds read low
Among all 5,500 compounds or so, about 2,000 (36%) were called active. Roughly 18% stayed inconclusive and do not appear here. The list shows a part of the results.
Property: normalized growth

Compound	Observed result
CC(=O)Oc1ccccc1C(=O)Oc1ccccc1C(=O)O	0.97 (inactive)
CCCCCC(O)C1C(=O)OC(C)C(O)/C=C/C=C/C=C/C=C/C=C(\C)C(O)CC(O)CC(O)CC(O)CC(O)CC(O)CC1O (stereo not drawn)	1.02 (inactive)
CN(C)CC[C@H](c1ccc(Cl)cc1)c1ccccn1	0.992 (inactive)
O=C(CCCN1CCC(O)(c2ccc(Cl)cc2)CC1)c1ccc(F)cc1	0.98 (inactive)
CC1(C)S[C@@H]2C(N3C(=O)[C@@H](c4ccccc4)NC3(C)C)C(=O)N2[C@H]1C(=O)O (stereo partly drawn)	1.03 (inactive)
CCOC(=O)CC(SP(=S)(OC)OC)C(=O)OCC (stereo not drawn)	1.01 (inactive)
CC1(C)S[C@@H]2[C@H](NC(=O)C(C(=O)O)c3ccccc3)C(=O)N2[C@H]1C(=O)O (stereo partly drawn)	0.985 (inactive)
COC1CC(O[C@H]2CC[C@]3(C=O)C4CC[C@]5(C)C(C6=CC(=O)OC6)CC[C@]5(O)C4CC[C@]3(O)C2)OC(C)C1O (stereo partly drawn)	0.992 (inactive)
Oc1ccc2c3c1OC1[C@@H](O)CC[C@@]4(O)[C@@H](C2)N(CC2CCC2)CC[C@]314 (stereo partly drawn)	1.01 (inactive)
O=C(/C=C(\O)c1ccccc1)c1ccccc1O	0.863 (active)
CC(C)Nc1nc(Cl)nc(NC(C)C)n1	1.01 (inactive)
CSc1nc(NC(C)C)nc(NC(C)C)n1	1.01 (inactive)
NC[C@@H]1O[C@H](O[C@@H]2[C@@H](CO)OC(O[C@@H]3[C@@H](O)[C@H](N)C[C@H](N)[C@H]3O[C@H]3O[C@H](CO)[C@@H](O)[C@H](O)[C@H]3N)[C@@H]2O)[C@H](N)[C@@H](O)[C@@H]1O (stereo partly drawn)	0.993 (inactive)
COC(=O)[C@H]1[C@H]2C[C@H]3c4[nH]c5cc(OC)ccc5c4CCN3C[C@H]2C[C@@H](OC(=O)c2cc(OC)c(OC)c(OC)c2)[C@@H]1OC	0.992 (inactive)
COC1=CC(C)[C@@H]2C[C@H]3OC(=O)C[C@H]4C(C)=C(OC)C(=O)C([C@@]34C)[C@@]2(C)C1=O (stereo partly drawn)	1.01 (inactive)
C[C@H]1[C@H](C)CC[C@]2(C(=O)O)CC[C@]3(C)C(=CCC4[C@@]5(C)C[C@@H](O)[C@H](O)[C@@](C)(CO)C5[C@H](O)C[C@]43C)[C@H]12 (stereo partly drawn)	0.944 (inactive)
CNC[C@H](O)c1cccc(O)c1	1.02 (inactive)
COc1nc(NC(C)C)nc(NC(C)C)n1	1.01 (inactive)

* * *

Form field: normalized growth (one value per entry).
Assay protocol: chemical genetic growth profiling, strain panel (AID 1159580);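 also: tested at 20 µM; growth read once vehicle control cultures reached saturation at 30 °C; 1 = growth at the plate median or of vehicle wells; lower values mean less growth of the strain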
Test conditions: S. cerevisiae deletion strains, growth OD, locus YFL029C, strain CAK1, active compounds read low
The whole screen tested about 5,500 compounds, of which about 2,000 (36%) were called active. About 18% were inconclusive and are not listed. The list shows a part of the results.
Property: normalized growth

>>> print(df.to_string())
                                     smiles           property  observed_result
0  FC(F)(F)Sc1ccc(OCc2n[nH]c(=S)n2-c2ccccc2)cc1  normalized growth            0.989
1       O=C1Nc2ccccc2/C1=C\c1c[nH]c2ccccc12  normalized growth            0.472
2  N#Cc1ccc2[nH]cc(CCN(Cc3ccccc3)Cc3ccccc3)c2c1  normalized growth            0.986
3         O=C1Nc2ccccc2/C1=C\c1cccc2ccccc12  normalized growth            0.964
4             CN(C)/C=C1\CSc2ccc(Cl)cc2C1=O  normalized growth            0.932
5  FC(F)(F)Oc1ccc(OCc2n[nH]c(=S)n2-c2ccc(Cl)cc2)cc1  normalized growth            0.985
